Molecular target: EnvZ CA domain (Escherichia coli)
Sequence (P0AEJ4 289-450): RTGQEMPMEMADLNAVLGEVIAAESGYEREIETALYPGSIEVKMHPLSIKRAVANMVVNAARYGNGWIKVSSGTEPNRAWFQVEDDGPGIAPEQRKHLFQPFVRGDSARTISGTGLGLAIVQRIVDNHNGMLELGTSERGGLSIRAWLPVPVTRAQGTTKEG
pKd: −log10 of the molar value.
Measure: pKd

1. Nc1ncnc2c1ncn2[C@@H]1O[C@H](COP(=O)(O)OP(=O)(O)OP(=O)(O)O)[C@@H](O)[C@H]1O [ATP]; 4.08

###

Biological target: VanSC CA domain (Enterococcus gallinarum)
Sequence (Q9KJT3 208-361): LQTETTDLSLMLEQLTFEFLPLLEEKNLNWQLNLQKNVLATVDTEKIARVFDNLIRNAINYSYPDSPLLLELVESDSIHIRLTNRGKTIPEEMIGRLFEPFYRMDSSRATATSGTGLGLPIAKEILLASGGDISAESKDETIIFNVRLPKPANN
Measure: Kd

1) Nc1ncnc2c1ncn2[C@@H]1O[C@H](COP(=O)(O)OP(=O)(O)OP(=O)(O)O)[C@@H](O)[C@H]1O [ATP]; 3.13 mM
